Below, each entry is listed with its recorded Inhibitory activity on platelet aggregation, ADP.
Test system: Rabbit platelet rich plasma (PRP)
EXPERIMENTAL_PROTOCOL: Inhibitory activity on platelet aggregation in rabbit platelet rich plasma (light transmission)
Assay type: cell-based
RUN_CONDITIONS: compound 10^-4 (unit not given); Adenosine diphosphate (ADP) 5 mM; added to PRP 30 minutes before agent
Please reply with the bare figure in % and do not write the unit itself.

COC(=O)C1=C(C)NC(C)=C(C(=O)OC/C=C/c2ccc(-n3ccnc3)cc2)C1c1cccc([N+](=O)[O-])c1 (stereo not shown) [Example 3] = 2.2

Per the reported Rabbit platelet rich plasma (PRP) data, COC(=O)C1=C(C)NC(C)=C(C(=O)OC/C=C/c2ccc(Cn3ccnc3)cc2)C1c1ccccc1C#N (stereo not shown) [Example 18] has Inhibitory activity on platelet aggregation, ADP of 8.8

Per the reported Rabbit platelet rich plasma (PRP) data, COC(=O)C1=C(C)NC(C)=C(C(=O)OC/C=C/c2ccc(Cn3cnnc3)cc2)C1c1cccc([N+](=O)[O-])c1 (stereo not shown) [Example 9] has Inhibitory activity on platelet aggregation, ADP of 6.5

Per the reported Rabbit platelet rich plasma (PRP) data, COC(=O)C1=C(C)NC(C)=C(C(=O)OCCON=Cc2ccc(Cn3ccnc3)cc2)C1c1cccc([N+](=O)[O-])c1 (stereo not shown) [Example 26] has Inhibitory activity on platelet aggregation, ADP of 6.0

Per the reported Rabbit platelet rich plasma (PRP) data, COC(=O)C1=C(C)NC(C)=C(C(=O)OC/C=C/c2ccc(Cn3cnnn3)cc2)C1c1cccc([N+](=O)[O-])c1 (stereo not shown) [Example 11] has Inhibitory activity on platelet aggregation, ADP of 1.3

Per the reported Rabbit platelet rich plasma (PRP) data, COC(=O)C1=C(C)NC(C)=C(C(=O)OCCN(C)Cc2ccccc2)C1c1cccc([N+](=O)[O-])c1.Cl (stereo not shown) [NICARDIPINE, reference compound] has Inhibitory activity on platelet aggregation, ADP of 6.9

Per the reported Rabbit platelet rich plasma (PRP) data, COC(=O)C1=C(C)NC(C)=C(C(=O)OC/C=C/c2ccc(Cn3ccnc3)cc2)C1c1cccc(Cl)c1Cl (stereo not shown) [Example 12] has Inhibitory activity on platelet aggregation, ADP of 7.3

###

Below, each entry is listed with its recorded Inhibitory activity on platelet aggregation, PAF.
Test system: Rabbit platelet rich plasma (PRP)
EXPERIMENTAL_PROTOCOL: Inhibitory activity on platelet aggregation in rabbit platelet rich plasma (light transmission)
Assay type: cell-based
RUN_CONDITIONS: compound 3x10^-6 (unit not given); Platelet activating factor (PAF) 10 mg/ml; added to PRP 30 minutes before agent
Please reply with the bare figure in % and do not write the unit itself.

Note to self: Inhibitory activity on platelet aggregation, PAF recorded for COC(=O)C1=C(C)NC(C)=C(C(=O)OC/C=C/c2ccc(Cn3ccnc3)o2)C1c1cccc([N+](=O)[O-])c1 (centres unmarked) was 95.6

Note to self: Inhibitory activity on platelet aggregation, PAF recorded for COC(=O)C1=C(C)NC(C)=C(C(=O)OC/C=C/c2ccc(Cn3cnnc3)cc2)C1c1cccc([N+](=O)[O-])c1 (centres unmarked) was 78.8

Note to self: Inhibitory activity on platelet aggregation, PAF recorded for COC(=O)C1=C(C)NC(C)=C(C(=O)OC/C=C/c2ccc(Cn3ccnc3)cc2)C1c1cccc(Cl)c1Cl (centres unmarked) was 51.8

Note to self: Inhibitory activity on platelet aggregation, PAF recorded for COCCOC(=O)C1=C(C)NC(C)=C(C(=O)OC/C=C/c2ccc(Cn3ccnc3)cc2)C1c1cccc([N+](=O)[O-])c1 (centres unmarked) was 42.4

Note to self: Inhibitory activity on platelet aggregation, PAF recorded for C/C=C/C=C/COC(=O)C1=C(C)NC(C)=C(C(=O)OC/C=C/c2ccc(Cn3ccnc3)cc2)C1c1cccc([N+](=O)[O-])c1 (centres unmarked) was 74.1

Note to self: Inhibitory activity on platelet aggregation, PAF recorded for COC(=O)C1=C(C)NC(C)=C(C(=O)OC/C=C/c2ccc(Cn3ccnc3)cc2)C1c1ccnc2ccccc12 (centres unmarked) was 0
